- System: K562/A02
- assay.overview: Cytotoxicity against human K562/A02 cells overexpressing P-gp assessed as cell growth inhibition after 48 hrs by MTT assay
- Format: cell-based
- condition.description: K562/A02, 48 h
property.label: pIC50
// field semantics: pIC50 = negative decimal log of concentration (mol/L)

{"columns": ["compound", "pIC50"],
 "data": [
  ["COc1cc2c(cc1OC)CN(CCc1ccc(-n3cc(CNc4ccccc4NC(=O)c4ccsc4C)nn3)cc1)CC2", 4.23]
]}

Query :: Recorded pIC50 of COc1cc2c(cc1OC)CN(CCc1ccc(-n3cc(CNc4ccccc4NC(=O)c4cccnc4Cl)nn3)cc1)CC2 , please.
Result :: 4.33

Query :: So what's the measured pIC50 for this one? COc1cc2c(cc1OC)CN(CCc1ccc(-n3cc(CNc4ccccc4NC(=O)c4cccs4)nn3)cc1)CC2
Result :: 4.22

Query :: Item COc1cc2c(cc1OC)CN(CCc1ccc(-n3cc(CNc4ccccc4NC(=O)c4ccco4)nn3)cc1)CC2 has what recorded pIC50?
Result :: 4.23

Query :: Bench note: what pIC50 did COc1cccc2c1C(=O)c1c(O)c3c(c(O)c1C2=O)C[C@@](O)(C(=O)CO)C[C@@H]3O[C@H]1C[C@H](N)[C@H](O)[C@H](C)O1 [DOXORUBICIN] show?
Result :: 4.26

Query :: Would you kindly share the measured pIC50 for COc1cc2c(cc1OC)CN(CCc1ccc(NC(=O)c3cc(OC)c(OC)cc3NC(=O)c3cnc4ccccc4c3)cc1)CC2 ?
Result :: 4.52
